For each entry below, report its pIC50 value.
- ASSAY SYSTEM: monoamine oxidase (type B, β-phenylethylamine substrate) (Rattus norvegicus, UniProt P19643)
- Sequence (P19643 whole entry): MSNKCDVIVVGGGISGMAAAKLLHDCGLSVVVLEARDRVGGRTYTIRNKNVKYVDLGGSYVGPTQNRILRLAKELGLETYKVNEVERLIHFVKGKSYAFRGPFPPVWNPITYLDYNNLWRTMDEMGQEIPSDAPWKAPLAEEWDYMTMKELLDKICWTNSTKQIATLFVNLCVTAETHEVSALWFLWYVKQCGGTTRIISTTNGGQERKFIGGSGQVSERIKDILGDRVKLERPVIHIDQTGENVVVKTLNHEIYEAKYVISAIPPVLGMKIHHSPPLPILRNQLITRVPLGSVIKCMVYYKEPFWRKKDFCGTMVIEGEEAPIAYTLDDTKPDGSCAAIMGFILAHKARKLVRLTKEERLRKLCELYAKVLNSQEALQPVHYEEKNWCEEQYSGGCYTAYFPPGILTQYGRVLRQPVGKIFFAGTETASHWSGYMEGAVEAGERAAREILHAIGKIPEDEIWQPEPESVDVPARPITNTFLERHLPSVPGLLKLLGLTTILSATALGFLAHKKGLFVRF
- PROCEDURE TEXT: In-vitro monoamine oxidase inhibition, [14C]phenylethylamine hydrochloride as substrate
- Assay type: biochemical
- ASSAY SETUP: Table 1; rat brain monoamine oxidase extract, 37° C., 20 minutes, pH 7.4; read-out: I.C.50 -value using as substrate [14C]phenylethylamine.HCl
Structures can show the parent of a compound that is named as a salt.
Numbers only, as −log10 of the molar value.

Please review the following examples before continuing.
COc1ccc(CNc2ccc3c(c2)N2CCCN=C2S3)cc1	7.19
CCC(CC)Nc1ccc2c(c1)N1CCCN=C1S2	6.52
CC(C)Nc1ccc2c(c1)SC1=NCCCN12	4.70
O=C(c1ccccc1)c1ccc2c(c1)N1CCCN=C1S2	5.60
c1cc2c(cc1NC1CCCC1)N1CCCN=C1S2	6.92
Nc1cccc2c1SC1=NCCCN12 [Example 9-NH2, dihydrochloride]	4.05
c1ccc2cc3c(cc2c1)SC1=NCCCN13	5.05

# ---- query compound ----
# input For COc1cc(CNc2ccc3c(c2)SC2=NCCCN23)cc(OC)c1OC [8-NHCH2 [3,4,5-(OCH3)3C6 H2]] , what is its reported pIC50?
# output 7.47
